compounds and their reported IC50
molecular target: Vascular endothelial growth factor receptor 2 (Homo sapiens, UniProt P35968); experiment: Inhibition of VEGFR2 by HTRF assay
Sequence (P35968 whole entry): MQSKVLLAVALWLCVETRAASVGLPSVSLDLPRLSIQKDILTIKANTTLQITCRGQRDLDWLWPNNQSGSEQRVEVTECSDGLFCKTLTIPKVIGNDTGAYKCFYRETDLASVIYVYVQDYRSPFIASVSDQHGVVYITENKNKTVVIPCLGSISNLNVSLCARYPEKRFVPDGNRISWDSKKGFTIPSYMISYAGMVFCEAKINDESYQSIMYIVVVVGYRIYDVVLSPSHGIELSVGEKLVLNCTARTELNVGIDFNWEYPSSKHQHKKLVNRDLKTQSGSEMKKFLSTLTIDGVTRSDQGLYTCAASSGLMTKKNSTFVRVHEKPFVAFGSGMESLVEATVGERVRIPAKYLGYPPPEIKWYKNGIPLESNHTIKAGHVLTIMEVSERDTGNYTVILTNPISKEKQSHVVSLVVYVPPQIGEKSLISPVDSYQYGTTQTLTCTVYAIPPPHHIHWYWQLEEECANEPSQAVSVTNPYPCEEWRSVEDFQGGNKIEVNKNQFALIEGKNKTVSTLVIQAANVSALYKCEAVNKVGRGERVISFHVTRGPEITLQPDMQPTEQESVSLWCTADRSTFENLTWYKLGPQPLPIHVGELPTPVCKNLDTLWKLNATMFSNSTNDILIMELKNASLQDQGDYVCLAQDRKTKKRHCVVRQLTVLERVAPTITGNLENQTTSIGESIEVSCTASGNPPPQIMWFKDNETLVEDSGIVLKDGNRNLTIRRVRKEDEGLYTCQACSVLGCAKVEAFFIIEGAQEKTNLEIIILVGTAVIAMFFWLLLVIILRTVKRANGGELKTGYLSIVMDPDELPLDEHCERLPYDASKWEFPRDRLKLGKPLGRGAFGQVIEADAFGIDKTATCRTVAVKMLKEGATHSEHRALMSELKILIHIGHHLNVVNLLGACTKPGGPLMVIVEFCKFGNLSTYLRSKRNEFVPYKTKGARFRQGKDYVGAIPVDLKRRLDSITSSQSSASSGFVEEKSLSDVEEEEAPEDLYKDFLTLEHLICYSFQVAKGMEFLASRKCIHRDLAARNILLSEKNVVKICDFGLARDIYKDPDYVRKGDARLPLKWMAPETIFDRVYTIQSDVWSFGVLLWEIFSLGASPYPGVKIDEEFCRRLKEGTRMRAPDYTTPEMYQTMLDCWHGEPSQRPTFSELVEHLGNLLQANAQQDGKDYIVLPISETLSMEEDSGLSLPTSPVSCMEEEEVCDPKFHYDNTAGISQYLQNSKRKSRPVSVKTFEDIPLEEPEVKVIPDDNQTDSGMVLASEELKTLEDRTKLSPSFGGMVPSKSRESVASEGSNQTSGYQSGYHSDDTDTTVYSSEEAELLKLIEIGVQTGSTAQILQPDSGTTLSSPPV
API: value field is a number in µM; no unit string.

- Cn1cnc(NCc2ccc3c(c2)OCO3)c1C(=O)Nc1ccc(C(F)(F)F)cc1: 2.55

Now examine the next entry.
Which IC50 value is on record for Cn1cnc(NCc2ccc3c(c2)OCO3)c1C(=O)Nc1cccc(C(F)(F)F)c1 ?
3.12

* * *

Measured IC50 by item
molecular target: Vascular endothelial growth factor receptor 1 (Homo sapiens, UniProt P17948); assay: Inhibition of VEGFR1 by HTRF assay
Sequence (P17948 whole entry): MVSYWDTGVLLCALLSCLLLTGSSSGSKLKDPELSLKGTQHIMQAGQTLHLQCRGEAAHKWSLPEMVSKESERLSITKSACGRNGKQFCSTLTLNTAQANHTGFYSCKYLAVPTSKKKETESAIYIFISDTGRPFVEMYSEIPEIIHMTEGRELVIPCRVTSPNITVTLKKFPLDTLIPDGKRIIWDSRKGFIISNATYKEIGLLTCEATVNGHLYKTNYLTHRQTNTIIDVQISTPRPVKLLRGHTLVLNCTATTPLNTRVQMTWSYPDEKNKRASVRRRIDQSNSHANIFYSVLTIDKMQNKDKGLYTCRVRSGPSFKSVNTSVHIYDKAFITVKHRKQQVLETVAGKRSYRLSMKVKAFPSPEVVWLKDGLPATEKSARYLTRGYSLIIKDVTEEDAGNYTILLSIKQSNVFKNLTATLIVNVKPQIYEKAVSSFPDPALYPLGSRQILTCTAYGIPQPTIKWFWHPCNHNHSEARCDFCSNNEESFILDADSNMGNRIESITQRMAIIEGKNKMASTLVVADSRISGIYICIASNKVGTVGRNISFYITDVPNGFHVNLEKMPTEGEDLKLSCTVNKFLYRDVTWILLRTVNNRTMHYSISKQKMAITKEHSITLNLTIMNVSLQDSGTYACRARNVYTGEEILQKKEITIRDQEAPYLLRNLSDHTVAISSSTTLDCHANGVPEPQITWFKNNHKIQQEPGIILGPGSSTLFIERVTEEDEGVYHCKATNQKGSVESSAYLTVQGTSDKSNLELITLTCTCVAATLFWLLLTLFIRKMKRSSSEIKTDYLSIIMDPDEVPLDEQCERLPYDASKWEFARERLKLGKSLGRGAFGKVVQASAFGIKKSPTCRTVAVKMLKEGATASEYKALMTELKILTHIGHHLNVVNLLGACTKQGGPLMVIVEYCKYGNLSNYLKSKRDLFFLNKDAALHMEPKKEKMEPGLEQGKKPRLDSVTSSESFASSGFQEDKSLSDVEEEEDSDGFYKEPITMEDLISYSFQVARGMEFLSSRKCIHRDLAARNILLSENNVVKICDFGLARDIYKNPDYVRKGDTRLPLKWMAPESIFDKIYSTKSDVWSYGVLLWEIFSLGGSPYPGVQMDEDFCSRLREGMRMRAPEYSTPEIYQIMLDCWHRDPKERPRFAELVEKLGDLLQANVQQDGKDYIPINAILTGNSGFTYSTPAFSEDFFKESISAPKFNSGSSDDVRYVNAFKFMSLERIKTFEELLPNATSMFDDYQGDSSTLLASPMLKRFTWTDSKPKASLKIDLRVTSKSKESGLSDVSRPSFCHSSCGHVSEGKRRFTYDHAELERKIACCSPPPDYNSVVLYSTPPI
Respond with the bare value in µM.

See these solved cases before continuing.
- Cn1cnc(NCc2ccc3c(c2)OCO3)c1C(=O)Nc1cccc(C(F)(F)F)c1: 2.27
- Cn1cnc(NCc2ccc3c(c2)OCO3)c1C(=O)Nc1ccc(C(F)(F)F)cc1: 1.68

What measured IC50 goes with Cn1ncc(NCc2ccc3c(c2)OCO3)c1C(=O)Nc1cccc(C(F)(F)F)c1 ?
5.29
